Data origin, for the record: the Kinase Knowledgebase extract (Sharma et al. 2016)

System: EGFR (human) (UniProt P00533) | Read-out: IC50
Sequence (P00533 whole entry, looked up): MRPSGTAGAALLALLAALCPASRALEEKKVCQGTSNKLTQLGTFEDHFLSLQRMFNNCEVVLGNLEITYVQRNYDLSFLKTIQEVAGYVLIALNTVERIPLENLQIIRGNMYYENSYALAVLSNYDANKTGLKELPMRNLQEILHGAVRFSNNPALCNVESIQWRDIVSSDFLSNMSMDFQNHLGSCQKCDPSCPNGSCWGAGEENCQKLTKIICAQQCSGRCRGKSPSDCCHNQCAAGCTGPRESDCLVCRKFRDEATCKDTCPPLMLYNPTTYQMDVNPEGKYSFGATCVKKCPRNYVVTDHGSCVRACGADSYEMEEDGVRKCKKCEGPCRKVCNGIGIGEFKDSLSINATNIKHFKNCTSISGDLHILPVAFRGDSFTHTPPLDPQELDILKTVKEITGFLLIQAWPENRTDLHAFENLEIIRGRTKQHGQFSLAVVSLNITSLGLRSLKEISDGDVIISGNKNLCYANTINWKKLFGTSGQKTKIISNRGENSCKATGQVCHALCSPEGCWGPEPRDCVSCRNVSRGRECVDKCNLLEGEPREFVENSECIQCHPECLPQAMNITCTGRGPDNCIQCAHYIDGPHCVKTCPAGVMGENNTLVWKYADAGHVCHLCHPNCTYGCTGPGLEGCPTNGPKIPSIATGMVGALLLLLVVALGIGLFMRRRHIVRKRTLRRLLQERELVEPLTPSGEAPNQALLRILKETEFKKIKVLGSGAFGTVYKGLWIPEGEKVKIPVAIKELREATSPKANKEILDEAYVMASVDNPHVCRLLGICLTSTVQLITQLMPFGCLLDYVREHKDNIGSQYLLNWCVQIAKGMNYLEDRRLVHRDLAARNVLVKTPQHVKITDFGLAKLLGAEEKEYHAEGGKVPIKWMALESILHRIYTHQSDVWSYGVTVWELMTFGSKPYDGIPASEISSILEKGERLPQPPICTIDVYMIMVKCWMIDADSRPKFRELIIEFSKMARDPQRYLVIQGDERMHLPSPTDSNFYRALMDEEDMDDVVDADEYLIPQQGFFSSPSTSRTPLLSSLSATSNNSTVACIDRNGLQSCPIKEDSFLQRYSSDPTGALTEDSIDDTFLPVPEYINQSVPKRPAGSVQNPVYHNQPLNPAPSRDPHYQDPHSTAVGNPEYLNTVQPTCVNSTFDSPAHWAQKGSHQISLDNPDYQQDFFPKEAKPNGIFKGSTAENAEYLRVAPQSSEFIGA
assay metric: IC50

molecule: O=C(Nc1ccc(F)cc1)c1cc(I)ccc1O
assay metric: IC50
result: > 50 µM
//
molecule: Cc1ccc(C(=O)Nc2ccc(C(C)C)cc2)c(O)c1
assay metric: IC50
result: > 50 µM
//
molecule: Cc1ccc(C(=O)Nc2ccc(Cl)cc2)c(O)c1
assay metric: IC50
result: > 50 µM
//
molecule: O=C(Nc1ccccc1)c1ccccc1O
assay metric: IC50
result: > 50 µM
//
molecule: O=C(Nc1ccc(F)cc1)c1ccccc1O
assay metric: IC50
result: > 50 µM
